# Test system: SK-MEL-5 melanoma
# experiment: NCI tumour cell line growth inhibition, 48 h; in the data active means GI50 below about 0.43 µM; inactive means the rest
The reply should name one outcome from active, inactive

Check out these entries, answers already filled in.
sample smiles	category
CN(C)CCNC(=O)c1cccc2cc3ccccc3nc12	inactive
N#C/C(=C/C=C(\Cl)c1ccc(Cl)cc1)C(N)=O	inactive
O=C1/C(=C/c2ccccc2)SC(=Nc2ccccc2)N1Nc1ccccc1	inactive
Cc1ccc(N=C2CSc3nnc(-c4csc5c4CCCC5)n3N2)cc1	active
CCCCCCCCOc1ccc(/C=N/Nc2cc(C)nc3ccc(Cl)cc23)cc1	inactive
COC(=O)[C@]12CC[C@@H](C)[C@H](C)[C@@H]1C1=CC[C@@H]3[C@@]4(C)C(C=O)=C[C@@](C)(COC(C)=O)[C@@H]4[C@H](O)C[C@@]3(C)[C@]1(C)CC2	inactive

stdin: Please share the test call associated with `COc1cc2c3c(n(CCCN)c(=O)c2cc1OC)-c1ccc(F)cc1C3=O` .
stdout: inactive

stdin: Repeat for the following compound: `COc1cc2cc(Oc3ccc(NC(=O)Nc4ccccc4)cc3)c(C)nc2cc1OCCN1CCCCC1`
stdout: inactive

stdin: Repeat for the following compound: `Cc1ccc(S(=O)(=O)Oc2ccc3c4c(c(=O)oc3c2)CCCCC4)cc1`
stdout: inactive

stdin: Repeat for the following compound: `COc1cc(/C=C/C(=O)c2cc(F)c(Cl)cc2Cl)cc(OC)c1OC`
stdout: inactive

stdin: Repeat for the following compound: `Nc1ccc(C#Cc2cncnc2Nc2ccc(OCc3cccc(F)c3)c(Cl)c2)cc1`
stdout: inactive

====

# reported TGI; entries follow
# Test system: LOX IMVI melanoma
# experiment: NCI tumour cell line growth inhibition, 48 h
Answer in µM, number only, no unit symbol.

Some entries whose results are on file:
compound	measured attribute	unit	data value
CN1CCN(c2ccc(-c3cnc4c(-c5csc6ccccc56)cnn4c3)cc2)CC1	TGI	µM	5.4
C=C1C(=O)O[C@H]2[C@H]1CC/C(COC(=O)C(=O)c1c[nH]c3ccc(OC)cc13)=C\CC[C@@]1(C)O[C@@H]21	TGI	µM	2.35
CCCCCCCCCCCCCC/C(C(=O)OC)=C(/O)C(=O)OCC	TGI	µM	39.3
CC(CN)[C@@H]1CC[C@]2(CO)CC[C@]3(C)[C@H](CC[C@@H]4[C@@]5(C)CCC(NCCO)C(C)(C)[C@@H]5CC[C@]43C)[C@@H]12 (stereo partly specified)	TGI	µM	3.12
N#C/C(=C\c1ccc(Br)cc1)n1nnc2cccc(F)c21	TGI	µM	1.92

stdin: May I ask what TGI has been recorded for `Cc1ccc(-c2ccc(Nc3c4ccccc4nc4ccccc34)cc2)cn1` ?
stdout: 6.54

stdin: Repeat for the following compound: `CCCCCCCCOc1ccc(/C=N/Nc2cc(C)nc3ccc(Cl)cc23)cc1`
stdout: 3.17

stdin: Repeat for the following compound: `COc1cc(/C=C/C(=O)c2cc(F)c(Cl)cc2Cl)cc(OC)c1OC`
stdout: 91.2

stdin: Repeat for the following compound: `Cn1c(-c2csc(-c3ccc(Cl)cc3)n2)n[nH]c1=S`
stdout: 73

stdin: Repeat for the following compound: `C=C(CN(CC(=C)C(=O)c1ccccc1)C(C)(C)C)C(=O)c1ccccc1`
stdout: 30.8

stdin: Repeat for the following compound: C=C(C)C1Cc2c(cc(O)c3c(=O)c4ccccc4n(C)c23)O1 (stereo unspecified)
stdout: 37.2

====

# Test system: SNB-75 CNS
# experiment: NCI tumour cell line growth inhibition, 48 h
measured attribute: log10(TGI) (log10 of the value in µM)
// units: µM (pre-log); metric: TGI; scale: log10

Some entries whose results are on file:
compound	target or system	data value
NC(=O)c1[nH]nc(C2OC(CO)C(O)C2O)c1O (configuration not stated)	SNB-75 CNS	2.92
Clc1ccc(OCc2nnc3sc(-c4ccc(-c5ccc(Cl)cc5Cl)o4)nn23)c(Cl)c1	SNB-75 CNS	1.53
Cn1c(N2CCCC2)c(C=O)c(=O)n(C)c1=O	SNB-75 CNS	1.97
CN(C)CCNC(=O)c1cccc2cc3ccccc3nc12	SNB-75 CNS	0.79
Cc1ccc(NC(=O)CC(=O)n2nc(-c3ccccc3)c(N=Nc3ccc(Cl)cc3)c2-c2ccccc2)cc1	SNB-75 CNS	1.85
O=[N+]([O-])CC(SCc1ccccc1)c1ccc2c(c1)OCO2 (configuration not stated)	SNB-75 CNS	1.49
COc1cc2c3c(n(CCCN)c(=O)c2cc1OC)-c1ccc(F)cc1C3=O	SNB-75 CNS	1.43

stdin: May I ask what log10(TGI) has been recorded for `COC(=O)[C@@H]1c2cc3c(c(O)c2[C@@H](OC)C[C@@]1(C)O)C(=O)c1c(O)cc2c(c1C3=O)OC1O[C@@]2(C)[C@H](O)[C@@H](N(C)C)[C@@H]1O` ?
stdout: -0.01

====

# System: HCC-2998 colon
# experiment: NCI tumour cell line growth inhibition, 48 h
measured attribute: log10(TGI) (log10 of the value in µM)
// units: µM (pre-log); metric: TGI; scale: log10

compound	log10(TGI)
c1ccc2nc3[nH]c4ccccc4c3cc2c1	0.45
c1ccc2c(c1)CCc1c-2n(CCN2CCCCC2)c2ccccc12	1.42

stdin: May I ask what log10(TGI) has been recorded for `CCCCCCOc1ccc(NC2=C(Cl)C(=O)c3cccnc3C2=O)cc1` ?
stdout: 0.49

stdin: Repeat for the following compound: `CC[N+](CC)=c1ccc2nc3c(cc(NCc4ccccc4)c4ccccc43)oc-2c1`
stdout: 0.10

stdin: Repeat for the following compound: COC(=O)C1OC(O[C@H]2CC[C@]3(C)[C@H]4CC=C5[C@@H]6CC(C)(C)CC[C@]6(C(=O)OC)[C@H](O)C[C@@]5(C)[C@]4(C)CC[C@H]3C2(C)C)C(O)C(O)C1O (some centres undefined)
stdout: 0.94

====

# Test system: NCI/ADR-RES ovarian
# experiment: NCI tumour cell line growth inhibition, 48 h
measured attribute: TGI (µM)
Answer in µM, number only, no unit symbol.

Some entries whose results are on file:
molecule	target or system	TGI (µM)
CC(CN)[C@@H]1CC[C@]2(CO)CC[C@]3(C)[C@H](CC[C@@H]4[C@@]5(C)CCC(NCCO)C(C)(C)[C@@H]5CC[C@]43C)[C@@H]12 (some centres undefined)	NCI/ADR-RES ovarian	22.2
COC(=O)c1c2c(c(C)[n+]([O-])c1C)C(=O)C=C(NCc1cccc(OC)c1)C2=O	NCI/ADR-RES ovarian	3.15
CC[C@@]1(O)C(=O)OCc2c1cc1n(c2=O)Cc2cc3cc(OC)ccc3nc2-1	NCI/ADR-RES ovarian	0.169

# input for lookup
stdin: May I ask what TGI has been recorded for `Cc1cc2c(cc1O)CC[C@@H]1[C@@H]2CC[C@]2(C)[C@@H](O)CC[C@@H]12` ?
stdout: 27.2

====

# Test system: SK-MEL-5 melanoma
# experiment: NCI tumour cell line growth inhibition, 48 h
measured attribute: TGI

Some entries whose results are on file:
compound	TGI
CCOC(=O)CCC(C(=O)OCC)n1nc2ccc(Nc3c(C)[n+]([O-])c4cc(Cl)ccc4[n+]3[O-])cc2n1 (centres undefined)	> 100 µM
CN(C)CCNC(=O)c1cccc2cc3ccccc3nc12	2.54 µM
CC(C)(C)NC(NC(C)(C)C)=C(C(Cl)=C(Cl)Cl)[N+](=O)[O-]	> 100 µM
CC(=O)NNc1nc(C)c(C(/C=C/c2ccc(Cl)cc2)=N\NS(=O)(=O)c2ccc(C)cc2)s1	> 100 µM
O=c1cccc(C#Cc2ccccc2)o1	9.59 µM
Cc1ccc(S(=O)(=O)N2CCC3(C(/C=C/c4ccccc4)=Nc4ccccc43)C2c2ccccc2)cc1 (centres undefined)	> 100 µM
N#CC1C(=O)Nc2sc(C(=O)c3ccc(Br)cc3)c(N)c2C12CCCCC2 (centres undefined)	32.5 µM
Oc1ccc2c(c1)OCC(O)(c1ccccc1O)C2 (centres undefined)	> 100 µM

# input for lookup
stdin: May I ask what TGI has been recorded for `C/C(Cl)=N\OC(=O)Nc1ccccc1C(F)(F)F` ?
stdout: > 100 µM

====

# System: NCI/ADR-RES ovarian
# experiment: NCI tumour cell line growth inhibition, 48 h
# reported TGI; entries follow

Some entries whose results are on file:
compound	TGI
COc1nn(Cc2ccccc2F)c2ccc([N+](=O)[O-])cc12	> 100 µM
O=c1c2cc(Br)ccc2oc2nc3n(c(=O)c12)CCCS3	> 100 µM
O=C(O)Cc1ccc(N2N=C(c3ccccc3)CC2=O)cc1	> 100 µM
COc1ccc(/C=C(/C(=O)N2CCCC2)c2cc(OC)c(OC)c(OC)c2)cc1N	63.9 µM
Cc1ccc(C(=O)CC(Cl)=C(Cl)Cl)cc1	> 100 µM

stdin: May I ask what TGI has been recorded for `COc1ccc(-c2cnc(-c3ccc(F)cc3)[nH]2)cc1` ?
stdout: > 100 µM

stdin: Repeat for the following compound: `Cc1ccc(N=C2CSc3nnc(-c4csc5c4CCCC5)n3N2)cc1`
stdout: > 50 µM
